Assay: chemical genetic growth profiling, strain panel (AID 1159580);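 further: tested at 20 µM; growth read once vehicle control cultures reached saturation at 30 °C; 1 = growth at the plate median or of vehicle wells; lower values mean less growth of the strain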
Details: S. cerevisiae deletion strains, growth OD, locus YBR229C, strain ROT2, active compounds read low
The campaign covered roughly 5,500 compounds. About 2,000 (36%) were called active. About 18% were inconclusive and are not listed. The list shows a part of the results.
molecules and their reported normalized growth

{"Molecule": "COc1ccc(C(=O)c2ccccc2)c(O)c1", "normalized growth": "0.956 (inactive)"}
{"Molecule": "COc1c(CC=C(C)C)c2c(c3oc(=O)c(-c4ccc(O)cc4)c(O)c13)C=CC(C)(C)O2", "normalized growth": "1.01 (inactive)"}
{"Molecule": "O[C@H]1C=C2CCN3Cc4cc5c(cc4C(C23)[C@@H]1O)OCO5 (some centres not stated)", "normalized growth": "0.665 (active)"}
{"Molecule": "CN1Cc2c(ccc3c2OCO3)C2C(O)Cc3cc4c(cc3C21)OCO4 (configuration not stated)", "normalized growth": "1 (inactive)"}
{"Molecule": "CC(C)=CCc1c(O)cc(C)oc1=O", "normalized growth": "0.99 (inactive)"}
{"Molecule": "CCCC(C)(SCC(=O)O)SCC(=O)O", "normalized growth": "1 (inactive)"}
{"Molecule": "C=CC(C)(C)c1c2c(c(O)c3c(=O)c4ccc(O)c(O)c4oc13)C=CC(C)(C)O2", "normalized growth": "1 (inactive)"}
{"Molecule": "CCCCOc1ccc(OCCCN2CCOCC2)cc1", "normalized growth": "1 (inactive)"}
{"Molecule": "CCCCOc1cc(C(=O)O)ccc1OC", "normalized growth": "0.984 (inactive)"}
{"Molecule": "OCc1ccccc1O[C@@H]1O[C@H](CO)[C@@H](O)[C@H](O)[C@H]1O", "normalized growth": "0.95 (inactive)"}
{"Molecule": "Cc1cc(C)c(NC(=S)NCCCN2CCOCC2)c(C)c1", "normalized growth": "1.01 (inactive)"}
{"Molecule": "O=c1ccc2ccccc2o1", "normalized growth": "1.02 (inactive)"}
{"Molecule": "CCCCOc1ccc(C(=O)CCC(=O)O)cc1", "normalized growth": "0.915 (active)"}
{"Molecule": "NC[C@@H]1O[C@H](O[C@@H]2[C@@H](CO)OC(O[C@@H]3[C@@H](O)[C@H](N)C[C@H](N)[C@H]3OC3O[C@H](CN)[C@@H](O)[C@H](O)[C@H]3N)[C@@H]2O)[C@H](N)[C@@H](O)[C@@H]1O (some centres not stated)", "normalized growth": "1 (inactive)"}
{"Molecule": "CCCCCCCCCCCCC[N+](C)(C)Cc1ccccc1", "normalized growth": "0.0463 (active)"}
{"Molecule": "COc1c(CC=C(C)C)c2c(c3oc(=O)c(-c4ccc(OC(C)=O)cc4)c(OC(C)=O)c13)C=CC(C)(C)O2", "normalized growth": "1.03 (inactive)"}
{"Molecule": "COc1ccc(S(=O)(=O)Nc2cc(C)c(C)cc2[N+](=O)[O-])c(OC)c1", "normalized growth": "1 (inactive)"}
{"Molecule": "CC(C)=CCc1c(O)cc2oc(C)cc(=O)c2c1O", "normalized growth": "1.01 (inactive)"}
{"Molecule": "COC(=O)c1cc(OC)c(OC)c(OC)c1NS(=O)(=O)c1cc(OC)ccc1OC", "normalized growth": "0.999 (inactive)"}
{"Molecule": "COc1cc(O)c(C(=O)c2ccccc2)cc1O", "normalized growth": "1.02 (inactive)"}
{"Molecule": "Cc1cc(C(C)(C)CC(C)(C)C)ccc1OCCOCC[N+](C)(C)Cc1ccccc1", "normalized growth": "0.0513 (active)"}
{"Molecule": "COc1ccc(OC)c(C(=O)c2cc(OC)c(OC)c(OC)c2)c1", "normalized growth": "1.02 (inactive)"}
